Data origin: the nanobody polyreactivity screen of Harvey et al. (2022)

- PROTOCOL_NOTES: yeast display, Sf9 membrane polyspecificity reagent, FACS + sequencing; frameworks hold sequencing errors

>  <MONOMER_SEQUENCE>
QVQLVESGGGLVQAGGSLRLSCAASGSTSVDYTMGWSRQAPGKERELVAAIDYNGDSTYYADSVKGRFTISRDNAKITVYLQMNRLKPEDTAVYYCADDVWTLDPDEYDYWGQGTQVTVSS

>  <polyreactivity (PSR sort gate)>
low polyreactivity

$$$$
>  <MONOMER_SEQUENCE>
QVQLVESGGGLVQVGCSLRLSCAASGFTFYNNVMGWYRQAPGKERELVAAITSTGSTSYADSVKGRFTISRDNAKNTVYLQMNSLKPEDTAVVYCARAYYYLLGGHYRHKYYWGQGTQVTVSS

>  <polyreactivity (PSR sort gate)>
high polyreactivity

$$$$
>  <MONOMER_SEQUENCE>
QVQLVESGGGLVQAGGSLRLSCAASGSIFGYYVMGWYRQAPGKERELVAAISGSDSSTYYADSVKGRFTISRDNAKNTVYLQMNSLKPEDTAVYYCNADLRYYPVEFDYWGQGTQVTVSS

>  <polyreactivity (PSR sort gate)>
low polyreactivity

$$$$
>  <MONOMER_SEQUENCE>
QVQLVESGGGLVQAGGSLRLSCAASGNIFTGYMGWYRQAPRKERELVAAISRSGGRTHYADSVKGRFTISRDNAKNTVYLQMNSLKPEDTAVYYCNADVRRYTAFTKYPYAFNYWGQGTQVTVSS

>  <polyreactivity (PSR sort gate)>
high polyreactivity

$$$$
>  <MONOMER_SEQUENCE>
QVQLVESVGGLVQAGGSLRLSCAASGITFWKYTMGWYRQAPGKERELVAAITGRGGSTYYADSVKGRFTISRDNAKNTVYLQMNSLKPEDTAVYYCAADPYHLQTRFSGLAEFYYWGQGTQVTVSS

>  <polyreactivity (PSR sort gate)>
low polyreactivity

$$$$
>  <MONOMER_SEQUENCE>
QVQLVESGGGLVQAGGSLRLSCAASGLIFRAYAMGWYRQAPGKERELVAAITRSGGRTYYADSVKGRFTISRDNAKNTVYLQMNSLTPEDTAVYYCAAEYGNTYSSYTYDYWGQGTQVTVSS

>  <polyreactivity (PSR sort gate)>
high polyreactivity

$$$$
>  <MONOMER_SEQUENCE>
QVQLVESGGGLVQAGGSLRLSCAASGSIIYYYAMGWYRQAPGKERELVASITRGGSTYYADSVKGRFTISRDNAKNTVYLQMNSLKPEDTAVYYCNADLGAYVPYDYWGQGTQVTVSS

>  <polyreactivity (PSR sort gate)>
high polyreactivity

$$$$
>  <MONOMER_SEQUENCE>
QVQLVESGGRLVQAGGSLRLSCAASGFIFAYNAMGWYRQAPGKERELVAAISWSGGSTYYADSVKGRFTISRDNAKNTVYLQMNSLKPEDTAVSYCNKYIRYPFKRYGYWGQGTQVTVSS

>  <polyreactivity (PSR sort gate)>
high polyreactivity

$$$$
>  <MONOMER_SEQUENCE>
QVQLVESGGGLVQAGGSLRLSCAASGSIFVTNAMGWYRQAPGKERELVAAISWSGDNTYYADSVKGRFTISRDNAKNTFYLQMNSLIPEDTAVYYCSTDVWYSYDYYYGDWGYEYWGQGTQVTVSS

>  <polyreactivity (PSR sort gate)>
high polyreactivity

$$$$
>  <MONOMER_SEQUENCE>
QVQLVESGGGLVQAGGSLRLSCAASGSTYLYAIRWYRQAPGKERELVAAISWSGGSTYYADSVKGRFTISRDNAKNTVYLQMNSLKPEDTAVYYCNAYTYPFDWGQGTQVTVSS

>  <polyreactivity (PSR sort gate)>
high polyreactivity

$$$$
>  <MONOMER_SEQUENCE>
QVQLVESGGGLVQAGGSLRLSCAASGSNFINNAMGWYRQAPGKERELVAAISYSGGRTYYADSVKGRFTISRDNAKNTVYLQMNSLKPEDTAVYYCAADRSHRMNWGQGTQVTVSS

>  <polyreactivity (PSR sort gate)>
high polyreactivity

$$$$
